test: Serum concentration and pharmacokinetics of SCI after oral gavage in Wistar rats; assay type: in vivo, Wistar rat; conditions: male, Wistar, rat, serum, po, 10 mg/kg, Rat No 3; oral 10 mg/kg
MEASURED_METRIC: Tmax (h)
Please respond with the number in h and leave the unit unwritten.

Any idea what its Tmax is? The molecule is O[C@H]1[C@H](O)[C@@H](O)[C@H](O)[C@@H](O)[C@@H]1O
1

----------
assay: Serum concentration and pharmacokinetics of SCI after oral gavage in Wistar rats; assay type: in vivo, Wistar rat; conditions: male, Wistar, rat, serum, po, 10 mg/kg, Rat No 6; oral 10 mg/kg
MEASURED_METRIC: Cmax (ng/mL)
Please respond with the number in ng/mL and leave the unit unwritten.

Any idea what its Cmax is? The molecule is O[C@H]1[C@H](O)[C@@H](O)[C@H](O)[C@@H](O)[C@@H]1O [SCI, scyllo-inositol]
5400

----------
assay: Serum concentration and pharmacokinetics of SCI after oral gavage in Wistar rats; assay type: in vivo, Wistar rat; conditions: male, Wistar, rat, serum, po, 10 mg/kg, Concentration of SCI in serum, Rat No. 2; time 1.5 h; oral 10 mg/kg
MEASURED_METRIC: concentration at 1.5 h
Please state the value followed by its unit.

Any idea what its concentration at 1.5 h is? The compound is O[C@H]1[C@H](O)[C@@H](O)[C@H](O)[C@@H](O)[C@@H]1O [SCI, scyllo-inositol]
6200 ng/mL

----------
Test: Serum concentration and pharmacokinetics of SCI after oral gavage in Wistar rats
Format: in vivo, Wistar rat
Conditions: male, Wistar, rat, serum, po, 10 mg/kg, Rat No 1; serum; oral 10 mg/kg; read-out: T0.5e (elimination half-life) (converted)
Method: All procedures were performed according to the Local Ethical Committee of Experiments on Animals guidelines in Olsztyn, Poland. The experiment was conducted in the same way as described by Antonowski et al.. […] The analysis is described in detail by Antonowski and co-workers. […] Next, samples were analyzed using the high-resolution gas chromatography method. […] Finally, scyllo-inositol was quantified by using a standard. The PK parameters were calculated using PK Solver. […]
MEASURED_METRIC: half-life (min)
Please respond with the number in min and leave the unit unwritten.

Any idea what its half-life is? The compound is O[C@H]1[C@H](O)[C@@H](O)[C@H](O)[C@@H](O)[C@@H]1O [SCI, scyllo-inositol]
16.5

----------
experiment: Serum concentration and pharmacokinetics of SCI after oral gavage in Wistar rats; type: in vivo, Wistar rat; conditions: male, Wistar, rat, serum, po, 10 mg/kg, mean serum profile of six rats; oral 3.92 mg SCI (10 mg/kg); read-out: T0.5e (elimination half-life) (converted)
MEASURED_METRIC: half-life (h)
Please respond with the number in h and leave the unit unwritten.

Any idea what its half-life is? The molecule is O[C@H]1[C@H](O)[C@@H](O)[C@H](O)[C@@H](O)[C@@H]1O [SCI, scyllo-inositol]
10.1

----------
experiment: Serum concentration and pharmacokinetics of SCI after oral gavage in Wistar rats; assay type: in vivo, Wistar rat; settings: male, Wistar, rat, serum, po, 10 mg/kg, Mean concentration of SCI in serum, 12 h after oral 10 mg/kg; rats 1–3
MEASURED_METRIC: concentration at 12 h
Please state the value followed by its unit.

Any idea what its concentration at 12 h is? The molecule is O[C@H]1[C@H](O)[C@@H](O)[C@H](O)[C@@H](O)[C@@H]1O
0 ng/mL
